Emax for assorted molecules
- System: Panc 05.04 cells (pancreatic cancer cells; Q699H and K700E mutations in SF3B1)
- test_protocol: Cell viability assay (CellTiter-Glo, 72 hr), Panc 05.04 cells
- Type: cell-based
- condition_notes: Panc 05.04 cells (mutant SF3B1); maximum achievable response in tested dose range, negative value = cellular lethality; read-out: Panc 05.04 (mt SF3B1 cells) Emax (%)
The reply should contain only the number, in %.

In the examples that follow, each entry is paired with its recorded Emax.
molecule | target | Emax [%]
C/C(=C\C=C\[C@@H](C)COC(=O)N1CCCC1)[C@H]1OC(=O)C[C@H](O)CC[C@H](C)[C@@H](OC(=O)N2CCN(C3CCCCCC3)CC2)/C=C/[C@@H]1C | Panc 05.04 cells (pancreatic cancer cells; Q699H and K700E mutations in SF3B1) | -90.9
C/C(=C\C=C\[C@@H](C)COC(=O)N1C[C@H](O)[C@@H](O)C1)[C@H]1OC(=O)C[C@H](O)CC[C@@](C)(O)[C@@H](OC(=O)N2CCN(C3CCCCCC3)CC2)/C=C/[C@@H]1C | Panc 05.04 cells (pancreatic cancer cells; Q699H and K700E mutations in SF3B1) | -95.4

[ask] Request body: readout Emax, system Panc 05.04 cells (pancreatic cancer cells; Q699H and K700E mutations in SF3B1), query C/C(=C\C=C\C(C)c1ccncn1)[C@H]1OC(=O)C[C@H](O)CC[C@@](C)(O)[C@@H](OC(=O)N2CCN(C3CCCCCC3)CC2)/C=C/[C@@H]1C (some centres unmarked) . Return the value.
[reply] -26.6

[ask] Please give the result for CCCN(C)C(=O)OC[C@H](C)/C=C/C=C(\C)[C@H]1OC(=O)C[C@H](O)CC[C@@](C)(O)[C@@H](OC(C)=O)/C=C/[C@@H]1C too.
[reply] -91.8

[ask] Please do the same for C/C(=C\C=C/[C@@H](C)COC(=O)N1CC[C@@H](O)C1)[C@H]1OC(=O)C[C@H](O)CC[C@H](C)[C@@H](OC(=O)N2CCN(C)CC2)/C=C/[C@@H]1C as well.
[reply] -90.4

[ask] Next molecule: C/C(=C\C=C\[C@@H](C)COC(=O)N1CC[C@@H](F)C1)[C@H]1OC(=O)C[C@H](O)CC[C@@](C)(O)[C@@H](OC(=O)N2CCN(C3CCCCCC3)CC2)/C=C/[C@@H]1C
[reply] -92.2

[ask] Next up: C/C(=C\C=C\[C@@H](C)COC(=O)N1CCCC1(C)C)[C@H]1OC(=O)C[C@H](O)CC[C@@](C)(O)[C@@H](OC(=O)N2CCN(C)CC2)/C=C/[C@@H]1C
[reply] -93.7

[ask] Let us now turn to C/C(=C\C=C\C(C)c1ccnc(N(C)C)n1)[C@H]1OC(=O)C[C@H](O)CC[C@@](C)(O)[C@@H](OC(=O)N2CCN(C)CC2)/C=C/[C@@H]1C (some centres unmarked)
[reply] 6.97
